Assay: Example 2: storage stability of standard formulation (pH 6.05), one year at 20-25° C.
Assay type: physicochemical
Settings: Example 2 formulation, pH 6.05, before storage
Assign 1 whenever Concentration at t = 0 does not fall below 6 % w/w; assign -1 whenever it does.

Solved cases (4 shown):
{"molecule": "Cn1nnnc1/C(=N\\OCc1cccc(NC(=O)OC(C)(C)C)n1)c1ccccc1 [picarbutrazox]", "group": -1}
{"molecule": "N#Cc1c[nH]cc1-c1cccc2c1OC(F)(F)O2 [Fludioxonil]", "group": -1}
{"molecule": "COCC(=O)N(c1c(C)cccc1C)[C@H](C)C(=O)OC [Mefenoxam]", "group": -1}
{"molecule": "Cn1cc(C(=O)Nc2ccccc2C2CC2C2CC2)c(C(F)F)n1 (centres unmarked) [Sedaxane]", "group": -1}

--- query ---
In plain terms: is recorded Concentration at t = 0 at least 6 % w/w for CN1COCN(Cc2cnc(Cl)s2)/C1=N\[N+](=O)[O-] [Thiamethoxam] ?
1

###

Exercise: for every item that follows, state its recorded % loss.
Test: Example 2: storage stability of standard formulation (pH 6.05), one year at 20-25° C.
Assay type: physicochemical
Conditions: Example 2 formulation, pH 6.05, one year at 20-25° C.
Experimental: Another standard formulation containing the follow active ingredients was created as follows: The formulation was stored for one year at 20-25° C. The pH of 6.05 providing excellent chemical stability for picarbutrazox as well at the other active ingredients.

Solved entries (count: 4):
{"compound": "N#Cc1c[nH]cc1-c1cccc2c1OC(F)(F)O2", "% loss": "1%"}
{"compound": "CN1COCN(Cc2cnc(Cl)s2)/C1=N\\[N+](=O)[O-]", "% loss": "2%"}
{"compound": "COCC(=O)N(c1c(C)cccc1C)[C@H](C)C(=O)OC", "% loss": "0%"}
{"compound": "Cn1nnnc1/C(=N\\OCc1cccc(NC(=O)OC(C)(C)C)n1)c1ccccc1", "% loss": "0%"}

# query: % loss of entry Cn1cc(C(=O)Nc2ccccc2C2CC2C2CC2)c(C(F)F)n1 (centres unmarked)
0%

###

Experiment: Example 2: storage stability of standard formulation (pH 6.05), one year at 20-25° C.
Type: physicochemical
Conditions: Example 2 formulation, pH 6.05, stored one year at 20-25° C.
Experimental: Another standard formulation containing the follow active ingredients was created as follows: The formulation was stored for one year at 20-25° C. The pH of 6.05 providing excellent chemical stability for picarbutrazox as well at the other active ingredients.
Criterion: Concentration at t = 1 year and 20-25 ° C. strictly less than 0.9 % w/w. Met: TRUE. Not met: FALSE.

Please check: Concentration at t = 1 year and 20-25 ° C. for Cn1cc(C(=O)Nc2ccccc2C2CC2C2CC2)c(C(F)F)n1 (centres unmarked) [Sedaxane] , strictly under 0.9 % w/w or not?
FALSE

###

Exercise: for every item that follows, state its recorded Concentration at t = 1 year and 20-25 ° C..
Assay: Example 2: storage stability of standard formulation (pH 6.05), one year at 20-25° C.
Format: physicochemical
Conditions: Example 2 formulation, pH 6.05, stored one year at 20-25° C.
Protocol: Another standard formulation containing the follow active ingredients was created as follows: The formulation was stored for one year at 20-25° C. The pH of 6.05 providing excellent chemical stability for picarbutrazox as well at the other active ingredients.
Give bare numbers, in % w/w.

Would you mind giving Concentration at t = 1 year and 20-25 ° C. for every compound in the list below?
1. N#Cc1c[nH]cc1-c1cccc2c1OC(F)(F)O2
2. CN1COCN(Cc2cnc(Cl)s2)/C1=N\[N+](=O)[O-]
3. Cn1nnnc1/C(=N\OCc1cccc(NC(=O)OC(C)(C)C)n1)c1ccccc1
4. COCC(=O)N(c1c(C)cccc1C)[C@H](C)C(=O)OC

1. 0.944
2. 19.1
3. 0.367
4. 5.77
